# Test system: LOX IMVI melanoma
# PROCEDURE_DETAILS: NCI tumour cell line growth inhibition, 48 h
TEST_READOUT: TGI

Consider the following illustrative entries.
MOLECULE	ASSAY_VALUE
COc1cc(C2C3=C(CCC3=O)Oc3cc4c(cc32)OCO4)cc(OC)c1OC (stereo not drawn)	> 100 µM
COc1ccc2cccc(C(=O)c3ccc(C)c4c3CCC4)c2c1	38.8 µM
CC(NC(=O)/C(=C/c1ccccc1O)NC(=O)c1ccccc1)C(=O)O (stereo not drawn)	> 100 µM
Cc1cc(S(=O)(=O)Nc2nnc3c(C(F)(F)F)cc(Cl)cn23)c(S)cc1Cl	> 100 µM
CCOC(=O)C1N(S(=O)(=O)c2ccc(C)cc2)CCC12c1ccccc1N(C(C)=O)C2C(/C=C/C(=O)OC)=C/C(=O)OC (stereo not drawn)	> 100 µM

[in] Requested field: TGI. Item: CCCn1c(C23CC4CC(CC(C4)C2)C3)nc2ccc(Cl)cc2c1=O
[out] > 100 µM

[in] Note, next up: O=C1c2ccccc2C(=O)c2c(NCCCNCCO)ccc(NCCCNCCO)c21
[out] 14.9 µM

[in] Note, next up: O=C(c1ccccc1)C1C(C(=O)c2ccccc2)N1Cc1ccccc1 (stereo not drawn)
[out] > 100 µM

[in] Note, next up: N#Cc1c(NC(=O)c2ccccc2)sc2c1CCC(=O)C2
[out] 5.97 µM

[in] Note, next up: CN(C)CCCNc1nn2c(=O)c3ccccc3nc2c2ccccc12
[out] 17.2 µM

[in] Note, next up: COc1ccc(C(=O)c2cc(OC)c(OC)c(OC)c2)cc1OC(C)=O
[out] > 100 µM

[in] Note, next up: O=C(O)c1c(O)c2cc(Br)ccc2oc1=O
[out] > 100 µM

[in] Note, next up: OCC1OC(n2cnc3cccnc32)CC1O (stereo not drawn)
[out] > 100 µM

[in] Note, next up: COc1cccc(NC(=O)CSc2nnc(-c3ccc(N=Cc4ccc(Cl)cc4)cc3)o2)c1
[out] 37.7 µM

[in] Note, next up: Cn1cnc([N+](=O)[O-])c1Sc1ccccn1
[out] > 100 µM

[in] Note, next up: Cn1c(=O)c2c(-c3ccccc3)onc2n(C)c1=O
[out] 70.1 µM

[in] Note, next up: N#CCCC1C(C#N)C2CC1C1C3C=CC(C3)C21 (stereo not drawn)
[out] > 100 µM

[in] Note, next up: COc1ccc(-c2ccc3c(NC(=O)C4CC4)n[nH]c3n2)cc1
[out] > 25 µM

[in] Note, next up: CC1(C)N=C(N)N=C(N)N1c1cccc(C#N)c1
[out] > 100 µM

###

# Test system: HOP-92 NSCLC
# PROCEDURE_DETAILS: NCI tumour cell line growth inhibition, 48 h; in the data active means GI50 below about 0.43 µM; inactive means the rest
Parameter call: string, one of active, inactive

# count of solved cases: 3
MOLECULE	ASSIGNED_LABEL
Cc1ccc(Cl)cc1Nc1nc(C(F)(F)F)ccc1C(=O)Nc1cccc(C(F)(F)F)c1	inactive
C/C(=N\NC(N)=O)C(CN1CCCCC1)C(c1ccccc1)c1c(O)c2ccccc2oc1=O (centres undefined)	inactive
CN1/C(=C\C(I)C(I)C2=[N+](C)c3ccccc3C2(C)C)C(C)(C)c2ccccc21 (centres undefined)	active

Proceed to the following item.
[in] Call for entry C/C1=C\[C@H](C)C[C@H](C)OC(=O)C[C@H](c2ccc(O)cc2)NC(=O)[C@@H](Cc2c(Br)[nH]c3ccccc23)N(C)C(=O)[C@H](C)NC(=O)[C@@H](C)C1 :
[out] active
